B1: INTS3 (parent)
chain: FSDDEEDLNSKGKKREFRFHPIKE

variants of: B1; assay: protein stability index of a GFP-peptide fusion (GPS, HEK-293T) (PSI 1-6); higher = more stable; settings: c terminus: a fixed tail appended;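 note: lentivirally expressed fusions sorted by FACS into six bins by GFP to DsRed ratio, PSI derived from sequencing read proportions per bin multiplied by bin number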
Below, each entry is listed with its recorded protein stability index.
Output spec: single numeric token, no unit.

Worked set:
[[record]]
variant_spec = "D4R"
metric = "protein stability index"
value_measured = 1.85

[[record]]
variant_spec = "K23W"
metric = "protein stability index"
value_measured = 2.75

[[record]]
variant_spec = "D3N"
metric = "protein stability index"
value_measured = 2.57

[[record]]
variant_spec = "L8D"
metric = "protein stability index"
value_measured = 3.26

[[record]]
variant_spec = "F1D"
metric = "protein stability index"
value_measured = 2.84

[[record]]
variant_spec = "G12M"
metric = "protein stability index"
value_measured = 2.58


Tell me the measured protein stability index of K13D , please.
3.4

Field entry: E16V
2.89

Continue with S10G
2.9

Similarly, N9P ?
2.61

Also need E24N , thanks.
2.69
